Item-by-item account of self-cleavage
B1: HDV Ribozyme (parent)
chain: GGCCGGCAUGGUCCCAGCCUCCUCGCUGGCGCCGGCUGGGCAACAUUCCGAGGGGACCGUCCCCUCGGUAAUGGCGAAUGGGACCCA

Variants of: B1
TEST PROTOCOL: self-cleavage, relative activity (ratio to wild type); higher = more cleavage; co-transcriptional
# respond with the number and nothing more

[
  {
    "CHANGES": "G2A C14G",
    "self-cleavage": 0.0773
  },
  {
    "CHANGES": "G31U A71U",
    "self-cleavage": 0.181
  },
  {
    "CHANGES": "G11C C57A",
    "self-cleavage": 0.453
  },
  {
    "CHANGES": "U9G C24U",
    "self-cleavage": 0.767
  },
  {
    "CHANGES": "C41G G67U",
    "self-cleavage": 0.48
  }
]

Next up:
## Task Give recorded self-cleavage. C22U C58G
## Result 0.511
